Here the recorded MLD is given for each entry.
Tested on: dd-strain male mice
Test name: Acute toxicity test (minimum lethal dose, oral)
Assay type: in vivo
Experimental conditions: oral administration, mortality seven days after administration, three mice per group
Property label: MLD

COc1cc(/C=C/c2nc3c([nH]2)c(=O)n(C)c(=O)n3C)cc(OC)c1OC    > 300 mg/kg
CCCn1c(=O)c2nc(/C=C/c3cccc(Cl)c3)[nH]c2n(CCC)c1=O    > 100 mg/kg
CCCn1c(=O)c2[nH]c(/C=C/c3cc(OC)c(OC)cc3Br)nc2n(CCC)c1=O    > 300 mg/kg
CCCn1c(=O)c2[nH]c(/C=C/c3ccccc3F)nc2n(CCC)c1=O    > 100 mg/kg
CCCOc1ccc(/C=C/c2nc3c(c(=O)n(CCC)c(=O)n3CCC)n2C)cc1    > 100 mg/kg
CCCn1c(=O)c2nc(/C=C/c3cccc(F)c3)[nH]c2n(CCC)c1=O    > 100 mg/kg
CCn1c(=O)c2c(nc(/C=C/c3cc(OC)c(OC)c(OC)c3)n2C)n(CC)c1=O    > 300 mg/kg
CCCn1c(=O)c2c(nc(/C=C/c3ccc(OC)c4ccccc34)n2C)n(CCC)c1=O    > 100 mg/kg

Attribution: patent EP0565377B1
